Source: patent US20150368338A1

assayedTarget: T1, human IFN-ω (human, UniProt P05000 24-195)
T1 construct: also called interferon omega
protocolNotes: ProteOn, one antigen concentration
endpointLabel: Kd (nM)
One number for each entry, in nM.

binder	quantitativeResult
IFWM3291 (antibody, V domains shown, VH IFWH591, VL IFWL999; converted mAb; also called IFWB3026) VH: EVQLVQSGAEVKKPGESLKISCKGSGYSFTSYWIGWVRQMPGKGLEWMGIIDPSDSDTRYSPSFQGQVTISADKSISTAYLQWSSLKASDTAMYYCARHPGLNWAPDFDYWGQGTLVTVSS VL: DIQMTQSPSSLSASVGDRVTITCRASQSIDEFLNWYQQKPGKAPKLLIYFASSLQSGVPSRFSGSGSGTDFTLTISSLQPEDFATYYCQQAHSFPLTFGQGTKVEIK	0.028

Lab note: next binder to report on.
The measured Kd associated with IFWM3342 (antibody, V domains shown, VH IFWH624, VL IFWL992; converted mAb; also called IFWB3077) VH: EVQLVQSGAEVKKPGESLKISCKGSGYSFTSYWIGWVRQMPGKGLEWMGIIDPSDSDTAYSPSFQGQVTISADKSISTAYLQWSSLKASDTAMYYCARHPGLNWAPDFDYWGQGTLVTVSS VL: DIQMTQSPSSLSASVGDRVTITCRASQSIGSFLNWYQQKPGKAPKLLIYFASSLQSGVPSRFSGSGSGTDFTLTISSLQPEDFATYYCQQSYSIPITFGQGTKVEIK reads 0.068
